Test target: CNTO95
Protocol notes: competitive ELISA: peptide preincubated with CNTO95, CNTO95 binding to αVβ3-coated plate detected
Measured quantity: pEC50
Formally, pEC50 is defined as -log10 of the concentration c, with c in mol/L.

Input line: Return value of pEC50 for input DFRSWWDLSGYR (synthetic linear peptide, phage-display consensus (mimotope); also called 12p1; 12pG1) [CEN2319] , no commentary.
Output line: 5.24
